# Tested on: 242566-281-R-J2-PDC complex spheroid viability;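 also: spheroids exposed to compound for 7 days before readout; 100% = DMSO vehicle control wells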
# METHOD: Anticancer human tumor 242566-281-R-J2-PDC patient-derived pancreatic carcinoma cell line growth inhibition [RAS]
# COND: second compound 0.00949 µM; first compound 0.0316 µM; stronger effect = lower value
Hi! Could you tag entries with viability, T/C below 50% as true (1), and those at or above as false (0)? Much appreciated.

For orientation, consider the following solved cases.
MOLECULE	GROUP LABEL
C[C@@H](NC(=O)c1ncnc(N)c1Cl)c1ncc(C(=O)Nc2cc(C(F)(F)F)c(Cl)cn2)s1 + CCn1c(-c2cc(N3CCN(C)CC3)cnc2C(C)OC)c2c3cc(ccc31)-c1csc(n1)CC(NC(=O)C1CC1C)C(=O)N1CCCC(N1)C(=O)OCC(C)(C)C2	false (0)
CC(=O)OC12COC1CC(O)C1(C)C(=O)C(O)C3=C(C)C(OC(=O)C(O)C(NC(=O)OC(C)(C)C)c4ccccc4)CC(O)(C(OC(=O)c4ccccc4)C21)C3(C)C (configuration not stated) + CCn1c(-c2cccnc2C(C)OC)c2c3cc(ccc31)N1CCOC(CC(NC(=O)C(C(C)C)N(C)C(=O)C3(F)CCN(C(=O)C#CC(C)(C)N(C)C)CC3)C(=O)N3CCCC(N3)C(=O)OCC(C)(C)C2)C1	true (1)
O=C(c1ccc(F)c(F)c1Nc1ccc(I)cc1F)N1CC(O)([C@@H]2CCCCN2)C1 + CCn1c(-c2cccnc2C(C)OC)c2c3cc(ccc31)N1CCOC(CC(NC(=O)C(C(C)C)N(C)C(=O)C3(F)CCN(C(=O)C#CC(C)(C)N(C)C)CC3)C(=O)N3CCCC(N3)C(=O)OCC(C)(C)C2)C1	false (0)

Q: Confirm or reject: viability, T/C of CCC(CC)c1cc(NC2CCC(N)C2)n2nccc2n1 (configuration not stated) + CCn1c(-c2cccnc2C(C)OC)c2c3cc(ccc31)N1CCOC(CC(NC(=O)C(C(C)C)N(C)C(=O)C3(F)CCN(C(=O)C#CC(C)(C)N(C)C)CC3)C(=O)N3CCCC(N3)C(=O)OCC(C)(C)C2)C1 lies strictly below 50%
Ans: false (0)

Q: Let us now turn to CC1(O)CCCC1n1c(=O)c(C(F)F)cc2cnc(NC3CCN(S(C)(=O)=O)CC3)nc21 (configuration not stated) + CCn1c(-c2cc(N3CCN(C)CC3)cnc2C(C)OC)c2c3cc(ccc31)-c1csc(n1)CC(NC(=O)C1CC1C)C(=O)N1CCCC(N1)C(=O)OCC(C)(C)C2
Ans: true (1)

Q: Let us now turn to C[C@@H](NC(=O)c1ncnc(N)c1Cl)c1ncc(C(=O)Nc2cc(C(F)(F)F)c(Cl)cn2)s1 + CCn1c(-c2cccnc2C(C)OC)c2c3cc(ccc31)N1CCOC(CC(NC(=O)C(C(C)C)N(C)C(=O)C3(F)CCN(C(=O)C#CC(C)(C)N(C)C)CC3)C(=O)N3CCCC(N3)C(=O)OCC(C)(C)C2)C1
Ans: false (0)

Q: Let us now turn to CCN1CCN(Cc2ccc(Nc3ncc(F)c(-c4cc(F)c5nc(C)n(C(C)C)c5c4)n3)nc2)CC1 + CCn1c(-c2cc(N3CCN(C)CC3)cnc2C(C)OC)c2c3cc(ccc31)-c1csc(n1)CC(NC(=O)C1CC1C)C(=O)N1CCCC(N1)C(=O)OCC(C)(C)C2
Ans: true (1)

Data provenance: PubChem BioAssay AID2060910
